Molecular target: T1, mOrai1-hOrai1 ECL2 (KPPAE) protein (human/mouse chimera, UniProt Q8BWG9 1-304 (mouse entry))
T1 construct: also called Ch
T1 sequence (Q8BWG9 other isoform, or with tags, fused parts or gaps): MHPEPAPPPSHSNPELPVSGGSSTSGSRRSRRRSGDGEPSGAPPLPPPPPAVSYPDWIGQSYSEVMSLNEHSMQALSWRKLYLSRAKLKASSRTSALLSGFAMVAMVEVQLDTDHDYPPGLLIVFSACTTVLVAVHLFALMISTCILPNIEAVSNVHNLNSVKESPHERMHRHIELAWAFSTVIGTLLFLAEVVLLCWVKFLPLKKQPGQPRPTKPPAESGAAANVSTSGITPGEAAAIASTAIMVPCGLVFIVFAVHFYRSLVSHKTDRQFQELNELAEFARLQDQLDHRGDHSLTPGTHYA
Experiment: FACS, 293EBNA
Design: concentration or dose not given beside the values
reported_metric: POC (percent of control, FACS Geo Mean relative to binding to Ch. 1)

Consider the worked cases shown below.
mAb 5C1.1 (antibody, human IgG2, lambda, V domains shown, fully human IgG2 lambda, Campaign 2) VH: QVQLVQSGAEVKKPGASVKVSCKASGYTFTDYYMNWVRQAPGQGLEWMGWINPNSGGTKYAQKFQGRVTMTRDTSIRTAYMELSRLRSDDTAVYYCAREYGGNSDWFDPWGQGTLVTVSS VL: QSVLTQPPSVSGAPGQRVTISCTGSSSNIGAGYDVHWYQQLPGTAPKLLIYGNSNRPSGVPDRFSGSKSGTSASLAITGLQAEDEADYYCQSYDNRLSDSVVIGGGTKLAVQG ... < 1%
mAb 5B1.1 (antibody, human IgG2, lambda, V domains shown, fully human IgG2 lambda, Campaign 2; also called mAb 5Bl1.1) VH: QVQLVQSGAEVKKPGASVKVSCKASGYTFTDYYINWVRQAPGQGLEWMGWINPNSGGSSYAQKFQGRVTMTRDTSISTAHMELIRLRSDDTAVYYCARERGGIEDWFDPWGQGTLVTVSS VL: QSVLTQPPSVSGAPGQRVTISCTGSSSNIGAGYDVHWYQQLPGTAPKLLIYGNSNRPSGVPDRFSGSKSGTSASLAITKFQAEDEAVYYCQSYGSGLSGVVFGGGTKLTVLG ... < 1%

Field request: POC (percent of control, FACS Geo Mean relative to binding to Ch. 1) | item: mAb 5F2.1 (antibody, human IgG2, lambda, V domains shown, fully human IgG2 lambda, Campaign 2) VH: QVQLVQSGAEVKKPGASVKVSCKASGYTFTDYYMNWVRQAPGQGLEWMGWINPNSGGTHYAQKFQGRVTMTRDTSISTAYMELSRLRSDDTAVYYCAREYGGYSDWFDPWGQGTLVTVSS VL: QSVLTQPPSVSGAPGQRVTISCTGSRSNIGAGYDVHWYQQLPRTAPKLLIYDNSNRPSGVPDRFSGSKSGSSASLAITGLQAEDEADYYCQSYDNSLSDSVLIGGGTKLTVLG
< 1%
